Cited source: paper PMC8113097

- assay text: PAMPA permeability
- Format: in vitro ADME
assay readout: PAMPA Perm (×10⁻⁶ cm/s)

* NS(=O)(=O)c1ccc(Cc2c(-c3ccc(F)c(OCc4cccc(F)c4)c3)nn(-c3nc(C(=O)O)cs3)c2CC2CC2)cc1F [12h] | 2.9
* NS(=O)(=O)c1ccc(Cc2c(-c3cccc(Nc4ccccc4)c3)nn(-c3nc(C(=O)O)cs3)c2CC2CC2)cc1 [13h] | 4.4

1. NS(=O)(=O)c1ccc(Cc2c(-c3cccc(N4CCOCC4)c3)nn(-c3nc(C(=O)O)cs3)c2CC2CC2)cc1F [13a]
2. Cc1ccc(Oc2cc(-c3nn(-c4nc(C(=O)O)cs4)c(CC4CC4)c3Cc3ccc(S(N)(=O)=O)c(F)c3)ccc2F)cc1 [12p]
3. NS(=O)(=O)c1ccc(Cc2c(-c3ccc(F)c(OC4CC4)c3)nn(-c3nc(C(=O)O)cs3)c2CC2CC2)cc1F [12e]
Arrange these 3 compounds in increasing order of PAMPA Perm. Provide the labels, sequenced as the question asks.
1, 3, 2

a. NS(=O)(=O)c1ccc(Cc2c(-c3ccc(F)c(C(=O)N4CCCC4)c3)nn(-c3nc(C(=O)O)cs3)c2CC2CC2)cc1F [14b]
b. NS(=O)(=O)c1ccc(Cc2c(-c3ccc(F)c(C(=O)NCc4ccccc4)c3)nn(-c3nc(C(=O)O)cs3)c2CC2CC2)cc1F [14d]
// compare measured PAMPA Perm, left a , right b , return larger # answer = label of selected item
b

P. NS(=O)(=O)c1ccc(Cc2c(-c3ccc(F)c(NC(=O)c4ccccc4)c3)nn(-c3nc(C(=O)O)cs3)c2CC2CC2)cc1F [13i]
Q. NS(=O)(=O)c1ccc(Cc2c(-c3ccc(F)c(OCc4ccc(C(F)(F)F)o4)c3)nn(-c3nc(C(=O)O)cs3)c2CC2CC2)cc1F [12j]
// compare measured PAMPA Perm, left P , right Q , return larger # answer = label of selected item
Q
(Q: 12 ×10⁻⁶ cm/s, P: 6.4 ×10⁻⁶ cm/s)
